pIC50 listing for selected compounds.
assay: Inhibition of Saccharomyces cerevisiae alpha-glucosidase using p-nitrophenyl alpha-D-glucoside as substrate preincubated for 0.5 hrs followed by substrate addition measured after 1 hr by colorimetric method
Note on units: pIC50 is unitless, being -log10 of a concentration expressed in mol/L.

Example results:
* CC(C)=CCC/C(C)=C/CC1(CC=C(C)C)C(=O)C(O)=Cc2oc3cc(O)cc(O)c3c(=O)c21 (stereo not drawn) [GARCINIANONE A] | 4.47
* COc1cc2oc3cc(O)c(OC)c(CC=C(C)C)c3c(=O)c2c(O)c1CC=C(C)C | 5.06

Now for the compound whose pIC50 we want.
Look at this compound and give its reported pIC50. C[C@H]1O[C@H](O[C@H]2[C@H](O)[C@@H](O)[C@@H](O[C@H]3[C@H](O)[C@@H](O)C(O)O[C@@H]3CO)O[C@@H]2CO)[C@H](O)[C@@H](O)[C@@H]1N[C@H]1C=C(CO)[C@@H](O)[C@H](O)[C@H]1O (stereo partly drawn) [ACARBOSE]
5.10

---

test: Inhibition of Saccharomyces cerevisiae alpha-glucosidase using p-nitrophenyl alpha-D-glucoside as substrate preincubated for 0.5 hrs followed by substrate addition measured after 1 hr by colorimetric method
Mark each entry Y if its IC50 sits below 20 µM, and N for all others.

# example entries with known answers
* CC(C)=CCC/C(C)=C\CC1(CC=C(C)C)C(=O)C(O)=Cc2oc3cc(O)cc(O)c3c(=O)c21 (stereo not drawn) | Y
* COc1cc2oc3cc4c(c(O)c3c(=O)c2c(CC=C(C)C)c1OC)C=CC(C)(C)O4 | N

Would you kindly verify if IC50 of "COc1c(O)cc2oc3cc(O)c(CC=C(C)C)c(O)c3c(=O)c2c1CC=C(C)C" is strictly less than 20 µM?
Y

Likewise for "COc1c(O)cc2oc3cc(O)cc(O)c3c(=O)c2c1C/C=C(\C)CCC=C(C)C" ?
N

Another: CC(C)=CCC/C(C)=C\CC1(C/C=C(\C)CCC=C(C)C)C(=O)C(O)=Cc2oc3cc(O)cc(O)c3c(=O)c21 (stereo not drawn)
N

---

system: Salmonella typhimurium; assay: Antibacterial activity against Salmonella typhimurium TISTR 292 by 2-fold serial dilution method; format: functional, Salmonella enterica subsp. enterica serovar Typhimurium; settings: Salmonella enterica
measure-name: MIC

// known answers, use as guide
* COc1cc2oc3cc(O)c(OC)c(CC=C(C)C)c3c(=O)c2c(O)c1CC=C(C)C | 128 µg/mL
* COc1cc2oc3cc(O)c4c(c3c(=O)c2c(O)c1CC=C(C)C)C=CC(C)(C)O4 | 128 µg/mL
* CC(C)=CCC/C(C)=C/CC1(C/C=C(\C)CCC=C(C)C)C(=O)C(O)=Cc2oc3cc(O)cc(O)c3c(=O)c21 (centres undefined) | 64 µg/mL

Turning now to a further record.
Dear colleague, I am looking for the recorded MIC of the following compound: COc1cc2c(=O)c3c(O)c4c(cc3oc2cc1O)OC(C)(CCC=C(C)C)C=C4 (centres undefined)
128 µg/mL

---

test system: Saccharomyces cerevisiae; test: Inhibition of Saccharomyces cerevisiae alpha-glucosidase using p-nitrophenyl alpha-D-glucoside as substrate at 100 uM preincubated for 0.5 hrs followed by substrate addition measured after 1 hr by colorimetric method relative to control
The reader will find reported inhibition values listed item by item below.
Dear colleague, please return just the value in %, with no unit written.

- COc1cc2oc3cc4c(c(O)c3c(=O)c2c(CC=C(C)C)c1OC)C=CC(C)(C)O4: 62.2

Now consider a different molecule.
# input molecule: "COc1c(O)cc2oc3cc4c(c(O)c3c(=O)c2c1CC=C(C)C)C=CC(C)(C)O4" ; wanted: its inhibition
70.1
